Cited source: the supplement of paper PMC11908140

B1: library; numbered along this chain (parent)
chain: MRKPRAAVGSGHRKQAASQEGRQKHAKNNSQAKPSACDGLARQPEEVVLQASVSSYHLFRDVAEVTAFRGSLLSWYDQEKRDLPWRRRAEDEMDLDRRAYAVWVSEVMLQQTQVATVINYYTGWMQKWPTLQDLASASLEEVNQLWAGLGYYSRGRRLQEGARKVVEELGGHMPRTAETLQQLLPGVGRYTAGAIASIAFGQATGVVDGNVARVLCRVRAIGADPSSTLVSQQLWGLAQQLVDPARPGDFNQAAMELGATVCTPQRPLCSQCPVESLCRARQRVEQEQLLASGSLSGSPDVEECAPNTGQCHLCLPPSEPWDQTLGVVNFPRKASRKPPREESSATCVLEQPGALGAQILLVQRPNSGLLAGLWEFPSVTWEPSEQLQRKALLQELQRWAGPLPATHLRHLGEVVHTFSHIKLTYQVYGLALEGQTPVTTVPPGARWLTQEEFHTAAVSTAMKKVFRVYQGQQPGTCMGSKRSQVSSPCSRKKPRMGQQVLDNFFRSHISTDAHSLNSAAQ

variants of: B1; assay: 8OG:A repair function score (normalized; synonymous = 0, nonsense = -1) (normalized log-likelihood score); higher = more repair activity (WT-like); conditions: with 8OG:A DNA repair reporter (GFP) in HEK-293 MUTYH KO cells;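 further: cells sorted at 72 h after reporter transfection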
8OG:A repair function score listing for selected variants.
Lab note: jot down the number only; don't add units.

// below: answered variants
ALTERATION: L448H
REPORTED_PROPERTY: 8OG:A repair function score
RESULT: -0.0456
--
ALTERATION: V261R
REPORTED_PROPERTY: 8OG:A repair function score
RESULT: -0.0976
--
ALTERATION: E385M
REPORTED_PROPERTY: 8OG:A repair function score
RESULT: 0.0941
--
ALTERATION: T179N
REPORTED_PROPERTY: 8OG:A repair function score
RESULT: -0.0369
--
ALTERATION: G248K
REPORTED_PROPERTY: 8OG:A repair function score
RESULT: -0.801

## Input Any idea what its 8OG:A repair function score is? The variant is `L448G`
## Output -0.516

## Input Consider the variant `P320V` and give its measured 8OG:A repair function score.
## Output -0.0867

## Input Which 8OG:A repair function score value belongs to `C477W` ?
## Output 0.00839
